experimental protocol: chemical recovery from spiked human plasma; higher = better extraction
assay context: pooled human plasma; extraction method: SPE only (HLB 96-well)
Category key, based on recorded chemical recovery: group 1 = under 30%, group 2 = from 30% up to 40%, group 3 = 40% and over

INSERT INTO results (compound, category_label) VALUES
  ('CCOC1Oc2ccc(OS(C)(=O)=O)cc2C1(C)C (stereo not drawn) [Ethofumesate]', 'group 3');

Now examine the next entry.
*Q* # bin label for O=C(OCc1ccccc1)c1ccccc1O [Benzyl salicylate]
*A* group 1

====

experimental protocol: chemical recovery into PDMS from spiked human plasma; higher = better extraction
assay context: pooled human plasma; extraction method: PES with PDMS; equilibration time (d): 1
Category key, based on recorded chemical recovery into PDMS: lower (below 4%), middle (4% to below 30%), upper (30% or more)

*Q* # bin label for CCCCc1oc2ccccc2c1C(=O)c1cc(I)c(OCCN(CC)CC)c(I)c1
*A* lower

*Q* # bin label for C[C@]12CCC(=O)C=C1[C@@H]1C[C@@H]1[C@H]1[C@@H]3[C@@H]4C[C@@H]4[C@@]4(CCC(=O)O4)[C@@]3(C)CC[C@@H]12
*A* upper

*Q* # bin label for CC(C)(C)C(O)C(Oc1ccc(Cl)cc1)n1cncn1 (stereo not drawn)
*A* upper

*Q* # bin label for C#C[C@]1(O)C=C[C@H]2[C@@H]3CCC4=CC(=O)CC[C@@H]4[C@H]3CC[C@@]21CC
*A* upper

*Q* # bin label for CC(Cc1ccc(C(C)(C)C)cc1)CN1C[C@@H](C)O[C@@H](C)C1 (stereo partly drawn)
*A* lower

*Q* # bin label for O=S(=O)(c1ccc(Cl)cc1)c1ccc(Cl)cc1
*A* upper

*Q* # bin label for Oc1ccc(Cl)cc1Cc1cc(Cl)ccc1O
*A* lower

*Q* # bin label for CCCCC(=O)O[C@]1(C(=O)CO)[C@@H](C)C[C@H]2[C@@H]3CCC4=CC(=O)C=C[C@]4(C)[C@@]3(F)[C@@H](O)C[C@@]21C [Betamethasone-17-valerate]
*A* middle

*Q* # bin label for CCCC1O[C@@H]2C[C@H]3[C@@H]4CCC5=CC(=O)C=C[C@]5(C)[C@H]4[C@@H](O)C[C@]3(C)[C@]2(C(=O)CO)O1 (stereo partly drawn) [Budesonide]
*A* middle

*Q* # bin label for CCNc1ccc2c(C)cc(=O)oc2c1 [7-(Ethylamino)-4-methylcoumarin]
*A* middle

*Q* # bin label for COCN(COC)c1nc(N(COC)COC)nc(N(COC)COC)n1
*A* upper

*Q* # bin label for COCCCC/C(=N\OCCN)c1ccc(C(F)(F)F)cc1
*A* lower
